Sequence of the target: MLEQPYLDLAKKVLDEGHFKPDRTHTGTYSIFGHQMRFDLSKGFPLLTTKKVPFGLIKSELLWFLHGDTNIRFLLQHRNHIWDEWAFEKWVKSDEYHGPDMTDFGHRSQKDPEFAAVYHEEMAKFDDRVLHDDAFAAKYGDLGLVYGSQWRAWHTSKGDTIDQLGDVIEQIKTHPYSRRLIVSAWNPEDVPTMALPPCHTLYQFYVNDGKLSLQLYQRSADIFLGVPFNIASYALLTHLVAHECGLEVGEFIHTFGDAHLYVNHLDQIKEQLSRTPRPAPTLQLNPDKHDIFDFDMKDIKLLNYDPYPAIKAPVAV
System: the protein given by its sequence | Read-out: log10(Ki) | Origin: multiple publications
measure name: log10(Ki) (log10 of the value in µM)

{"molecule": "CN(C)c1cccc2c(S(=O)(=O)N[C@@H](Cc3cc(I)c(OS(=O)(=O)c4cccc5c(N(C)C)cccc45)c(I)c3)C(=O)O)cccc12", "log10(Ki)": 0.64}
{"molecule": "CN(C)c1cccc2c(S(=O)(=O)Oc3ccc4c(c3)CN(S(=O)(=O)c3ccc(C(F)(F)F)cc3[N+](=O)[O-])[C@H](C(=O)O)C4)cccc12", "log10(Ki)": 0.74}
{"molecule": "CN(C)c1cccc2c(S(=O)(=O)Oc3ccc(C[C@H](NC(=O)c4ccc([N+](=O)[O-])cc4)C(=O)O)cc3)cccc12", "log10(Ki)": 1.18}
{"molecule": "O=C1OC(c2ccc(O)c(Br)c2)(c2ccc(O)c(Br)c2)c2cccc3c(Cl)ccc1c23", "log10(Ki)": -0.10}
{"molecule": "CN(C)c1cccc2c(S(=O)(=O)Oc3ccc(C[C@H](NS(=O)(=O)c4ccc(C(F)(F)F)cc4[N+](=O)[O-])C(=O)O)cc3)cccc12", "log10(Ki)": 0.83}
{"molecule": "CN(C)c1cccc2c(S(=O)(=O)Oc3ccc(C[C@H](NS(=O)(=O)Cc4ccccc4)C(=O)O)cc3)cccc12", "log10(Ki)": 0.67}
{"molecule": "O=C1OC(c2ccc(O)c(F)c2)(c2ccc(O)c(F)c2)c2ccc(Cl)c3cccc1c23", "log10(Ki)": 0.26}
{"molecule": "CN(C)c1cccc2c(S(=O)(=O)Oc3ccc4c(c3)CN(S(=O)(=O)c3cc(Br)c(Br)s3)[C@H](C(=O)O)C4)cccc12", "log10(Ki)": 0.60}
{"molecule": "CN(C)c1cccc2c(S(=O)(=O)Oc3ccc4c(c3)CN(S(=O)(=O)c3ccc([N+](=O)[O-])cc3)[C@H](C(=O)O)C4)cccc12", "log10(Ki)": 0.77}
{"molecule": "CN(C)c1cccc2c(S(=O)(=O)Oc3ccc(C[C@H](NS(=O)(=O)c4cc(Br)c(Br)s4)C(=O)O)cc3)cccc12", "log10(Ki)": 1.43}
